- target system: full-length USP11 (FL-USP11) (Homo sapiens)
- Construct: FYLIR peptide (AEGEFYKLKIRTPR) titrated into full-length USP11 (FL-USP11); His tag (inferred from nickel-chelate purification and the pColdI vector); made in house; host or cells: E. coli BL21-CodonPlus (pColdI), grown 72 h at 10 °C
- Sequence (P51784 44-963 limits assumed): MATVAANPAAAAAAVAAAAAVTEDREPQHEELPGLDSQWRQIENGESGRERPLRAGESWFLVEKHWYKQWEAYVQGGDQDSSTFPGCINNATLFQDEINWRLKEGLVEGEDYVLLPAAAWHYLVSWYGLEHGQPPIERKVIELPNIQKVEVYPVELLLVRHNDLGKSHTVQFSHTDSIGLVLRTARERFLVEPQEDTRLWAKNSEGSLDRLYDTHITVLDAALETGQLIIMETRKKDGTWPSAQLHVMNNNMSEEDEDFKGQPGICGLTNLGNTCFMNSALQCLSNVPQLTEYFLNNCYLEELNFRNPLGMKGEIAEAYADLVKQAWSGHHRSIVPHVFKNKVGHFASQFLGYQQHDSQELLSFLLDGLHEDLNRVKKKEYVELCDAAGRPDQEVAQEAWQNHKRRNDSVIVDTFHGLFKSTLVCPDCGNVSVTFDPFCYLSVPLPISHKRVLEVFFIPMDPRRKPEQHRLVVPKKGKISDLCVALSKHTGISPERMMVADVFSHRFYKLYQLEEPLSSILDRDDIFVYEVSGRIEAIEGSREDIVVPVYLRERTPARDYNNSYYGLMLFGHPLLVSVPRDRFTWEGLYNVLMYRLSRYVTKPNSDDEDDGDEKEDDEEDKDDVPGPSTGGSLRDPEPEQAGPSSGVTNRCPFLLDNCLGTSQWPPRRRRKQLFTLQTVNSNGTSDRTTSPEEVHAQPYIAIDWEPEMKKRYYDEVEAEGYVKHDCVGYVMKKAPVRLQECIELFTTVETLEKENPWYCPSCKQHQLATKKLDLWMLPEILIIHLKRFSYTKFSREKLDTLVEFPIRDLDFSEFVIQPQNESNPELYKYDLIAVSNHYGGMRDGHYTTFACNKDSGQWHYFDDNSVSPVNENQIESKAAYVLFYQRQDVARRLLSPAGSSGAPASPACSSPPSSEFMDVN
- test summary: Isothermal titration calorimetry, full-length USP11
- run conditions: ITC, 30 μM protein in PBS, 25 °C, one site binding model; n=1; read-out: dissociation constant
- Method: ITC data were measured on a MicroCal VP-ITC or a PEAQ ITC instrument to obtain the binding parameters for peptide ligand–USP11_DU interactions. The sample cell contained 30 μM protein in PBS buffer. Each peptide (at a concentration of 300 or 600 μM) was titrated into the sample cell in 8-μl (VP-ITC) or 2-μl (PEAK ITC) injections at a temperature of 25 °C. […] The data were analyzed using NITPIC ([52]), SEDPHAT ([53]), and GUSSI software. […]
No end group written: not given here.
measured metric: Kd

Please supply the value of reported Kd for the item AEGEFYKLKIRTPR-NH2 [AEGEFYKLKIRTPR]
~12.5 µM
